Biological target: T1, AfPiwi (UniProt O28951 1-427)
T1 sequence: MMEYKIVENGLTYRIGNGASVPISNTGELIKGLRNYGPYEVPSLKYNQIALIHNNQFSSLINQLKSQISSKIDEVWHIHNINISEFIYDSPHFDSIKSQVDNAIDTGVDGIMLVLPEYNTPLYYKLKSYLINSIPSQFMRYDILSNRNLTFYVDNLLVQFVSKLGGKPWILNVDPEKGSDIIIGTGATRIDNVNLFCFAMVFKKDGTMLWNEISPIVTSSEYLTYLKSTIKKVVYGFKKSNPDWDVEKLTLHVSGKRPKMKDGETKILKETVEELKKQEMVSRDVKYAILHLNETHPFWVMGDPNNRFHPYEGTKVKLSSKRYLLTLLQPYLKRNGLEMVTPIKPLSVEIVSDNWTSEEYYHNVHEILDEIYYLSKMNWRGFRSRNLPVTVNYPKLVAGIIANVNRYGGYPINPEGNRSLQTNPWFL
Test: ITC; target into AfPiwi-guide; 10 mM Mg2+; isolation 1280 nM; ITC: 50 mM Tris pH 7.5, 150 mM KCl, 5% glycerol, 10 mM MgCl2, 1 mM DTT, 20 C; guide 3.5-24 uM in cell with 3-4 fold excess AfPiwi, target in syringe
Conditions: protein: recombinant; one mismatch
QUANTITY_MEASURED: Kd
Answer with the value and then the unit.

Return value of Kd for input Fig 5D RNA mismatch (dsRNA, guide 5' phosphate) RNA 1: UGUAGGUU RNA 2: ACCUGC , no commentary.
2030 nM
